Experimental System: T1, human TIGIT ECD with C-terminal polyhistidine tag (human, UniProt Q495A1 22-141)
T1 construct: in-house or Sino Biological; also called hTIGIT-HIS; human TIGIT-HIS
T1 sequence: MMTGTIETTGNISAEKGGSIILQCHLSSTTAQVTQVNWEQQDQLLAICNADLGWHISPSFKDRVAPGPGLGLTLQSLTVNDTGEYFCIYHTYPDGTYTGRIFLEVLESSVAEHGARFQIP
Experiment Notes: KinExA equilibrium, His-tagged human TIGIT, n = 1
pKd: −log10 of the molar value.
Listing: pKd of selected binders
Measured Endpoint: pKd

[[record]]
binder = "CPA.9.086.H4(S241P) (antibody, human IgG4 S228P, lambda, V domains shown) VH: EVQLVETGGGLIQPGRSLRLSCAASGFTFSSYAMHWVRQAPGKGLEWVAVISYAGEVKYYADSVKGRFTISRDNSKNTLYLQMNSLRAEDTAVYYCARDPLPLHYYGMDVWGQGTTVTVSS VL: QSALTQPRSASGNPGQRVTISCSGSSSNMGRRPVNWYQQIPGTAPKLLIYSQNQRPSGVPDRFSGSQSGTSASLTISGLQSEDEAEYFCAVWDDIGRVLQLGGGTQLAVLG"
test_value = 12.26

[[record]]
binder = "CPA.9.083.H4(S241P) (antibody, human IgG4, V domains shown) VH: EVQLVETGGGLIQPGRSLRLSCAASGFTFSSYAMHWVRQAPGKGLEWVAVISYDGTPVYYADSVKGRFTISRDNSKNTLYLQMNSLRAEDTAVYYCARDPLPLHYYGMDVWGQGTTVTVSS VL: QSALTQPRSASGNPGQRVTISCSGSSSNMGRRPVNWYQQIPGTAPKLLIYSQNQRPSGVPDRFSGSQSGTSASLTISGLQSEDEAEYFCAVWDGDRRSLQLGGGTQLAVLG"
test_value = 12.16

[[record]]
binder = "BM26 hIgG4 (antibody, V domains shown, benchmark anti-human TIGIT antibody, human IgG4 with S241P; also called BM26-H4; WO2016/028656A1 Clone 3106 as hIgG4) VH: EVQLQQSGPELVKPGSSVKMSCKASGYTFSSYVMHWVKQKPGQGLEWIGYIDPYNDGAKYNEKFKGKATLTSDKSSSTAYMELSSLTSEDSAVYYCARGGPYGWYFDVWGAGTTVTVSS VL: DIQMTQSPASLSASVGETVTITCRASEHIYSYLSWYQQKQGKSPQLLVYNAKTLAEGVPSRFSGSGSGTQFSLKINSLQPEDFGTYYCQHHFGSPLTFGAGTTLELKR"
test_value = 11.09

[[record]]
binder = "CHA.9.547.13.H4(S241P) (antibody, human IgG4, V domains shown, humanized hybridoma antibody, human IgG4 (S241P)) VH: EVQLVESGGGLVQPGGSLRLSCAASGFTFSSYIMSWVRQAPGKGLEWVATISGGGTNTYYADSVKGRFTISRDNSKNTLYLQMNSLRAEDTAVYYCAKWLLSYYAMDYWGQGTLVTVSS VL: DIQMTQSPSSLSASVGDRITITCRASQNINVWLSWYQQKPGKAPKLLIYKASKSHTGVPSRFSGSGSGTDFTLTISSLQPEDFATYYCQQGQSYPYTFGQGTKLEIK"
test_value = 10.73

